Origin of the recorded values: patent US20240417410A1

- Tested on: AGS cells (KRAS G12D)
- measurement notes: Cell viability assay (Cell Counting Kit-8, 3-day)
- Assay type: cell-based, human
- reported conditions: Homo sapiens, 72 h, 72 hrs incubation
We begin with a simple list: items and their reported IC50.
assay metric: IC50 (nM)

| molecule | assay metric | recorded measurement |
| --- | --- | --- |
| CO[C@@H](C)c1ncc(N2CCN(C)CC2)cc1-c1c2c3cc(cc4c3n1CC(F)(F)C4)-c1csc(n1)C[C@H](NC(=O)[C@H]1[C@@H]3COC[C@@H]31)C(=O)N1CCC[C@H](N1)C(=O)OCC(C)(C)C2 (atropisomer, axis not shown; (M)) | IC50 | 32 |
| CO[C@@H](C)c1ncc(N2CCN(CCOC3CCOC3)CC2)cc1-c1c2c3cc(cc4c3n1CCC4)-c1csc(n1)C[C@H](NC(=O)[C@H]1[C@H](C)[C@@H]1C)C(=O)N1CCC[C@H](N1)C(=O)OCC(C)(C)C2 (stereo partly shown) | IC50 | 3.4 |
| CO[C@@H](C)c1ncc(N2CCN(C)CC2)cc1-c1c2c3cc(cc4c3n1CCC4)-c1csc(n1)C[C@H](NC(=O)[C@@H]1C[C@H]1c1ccncc1)C(=O)N1CCC[C@H](N1)C(=O)OCC(C)(C)C2 | IC50 | 38.5 |
| CO[C@@H](C)c1ncc(N2CCN(C)CC2)cc1-c1c2c3cc(cc4c3n1CCC4)-c1csc(n1)C[C@H](NC(=O)[C@H]1C[C@@H]1C)C(=O)N1CCC[C@H](N1)C(=O)OCC(C)(C)C2 (atropisomer, axis not shown; (M)) | IC50 | 29.9 |

###

- measurement notes: Single dose pharmacokinetics (PK) study in female BALB/c mice
- Assay type: in vivo, mouse
- reported conditions: female, BALB/c, mouse, plasma, po, 30 mg/kg, female BALB/c mice

| compound | AUC(0-t), ng·h/mL |
| --- | --- |
| CCn1c(-c2cc(N3CCN(C)CC3)cnc2[C@H](C)OC)c2c3cc(ccc31)-c1csc(n1)C[C@H](NC(=O)[C@H]1C[C@@H]1C)C(=O)N1CCC[C@H](N1)C(=O)OCC(C)(C)O2 [Example A122, reference compound] | 9760 |
| CCn1c(-c2cc(N3CCN(C)CC3)cnc2[C@H](C)OC)c2c3cc(ccc31)-c1csc(n1)C[C@H](NC(=O)[C@H]1[C@H](C)[C@@H]1C)C(=O)N1CCC[C@H](N1)C(=O)OCC(C)(C)C2 [Example A252, reference compound] | 14600 |

###

- target or system: KRAS G12C-BRAF complex (Homo sapiens (Human), UniProt P01116+P62937, G12C)
- Sequence (P01116-2 other isoform, or with tags, fused parts or gaps G12C): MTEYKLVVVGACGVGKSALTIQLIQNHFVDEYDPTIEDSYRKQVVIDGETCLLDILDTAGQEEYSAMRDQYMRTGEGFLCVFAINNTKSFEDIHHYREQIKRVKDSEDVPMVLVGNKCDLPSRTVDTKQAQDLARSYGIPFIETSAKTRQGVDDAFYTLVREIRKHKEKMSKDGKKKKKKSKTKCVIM
- Sequence (P62937 whole entry): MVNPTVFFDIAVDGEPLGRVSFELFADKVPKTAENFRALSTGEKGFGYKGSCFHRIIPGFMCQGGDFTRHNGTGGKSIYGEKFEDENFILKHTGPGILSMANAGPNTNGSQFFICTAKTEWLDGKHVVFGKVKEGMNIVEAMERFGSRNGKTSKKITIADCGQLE
- measurement notes: KRAS-BRAF with CYPA (500 nM) interaction assay (TR-FRET, Example 136)
- reported conditions: KRAS G12C-BRAF disruption
pIC50: −log10 of the molar value.

| compound | target or system | pIC50 |
| --- | --- | --- |
| CO[C@@H](C)c1ncc(N2CCN(C[C@@H]3CNCCO3)CC2)cc1-c1c2c3cc(cc4c3n1CCC4)-c1csc(n1)C[C@H](NC(=O)[C@H]1[C@H](C)[C@@H]1C)C(=O)N1CCC[C@H](N1)C(=O)OCC(C)(C)C2 (atropisomer, axis not shown; (M)) | KRAS G12C-BRAF complex (Homo sapiens (Human), UniProt P01116+P62937, G12C) | 8.03 |
| CO[C@@H](C)c1ncc(N2CCN(C)CC2)cc1-c1c2c3cc(cc4c3n1CCC4)-c1csc(n1)C[C@H](NC(=O)[C@H]1C[C@@H]1C(F)F)C(=O)N1CCC[C@H](N1)C(=O)OCC(C)(C)C2 (atropisomer, axis not shown; (M)) | KRAS G12C-BRAF complex (Homo sapiens (Human), UniProt P01116+P62937, G12C) | 7.65 |
| CO[C@@H](C)c1ncc(N2CCN(CC(F)(F)F)CC2)cc1-c1c2c3cc(cc4c3n1CCC4)-c1csc(n1)C[C@H](NC(=O)[C@H]1[C@@H]3COC[C@@H]31)C(=O)N1CCC[C@H](N1)C(=O)OCC(C)(C)C2 (atropisomer, axis not shown; (M)) | KRAS G12C-BRAF complex (Homo sapiens (Human), UniProt P01116+P62937, G12C) | 8.82 |
| CO[C@@H](C)c1ncc(N2CCOCC2)cc1-c1c2c3cc(cc4c3n1CCC4)-c1csc(n1)C[C@H](NC(=O)[C@H]1C[C@@H]1C(F)F)C(=O)N1CCC[C@H](N1)C(=O)OCC(C)(C)C2 (atropisomer, axis not shown; (M)) | KRAS G12C-BRAF complex (Homo sapiens (Human), UniProt P01116+P62937, G12C) | 7.95 |
| COCCN1CCN(c2cnc([C@H](C)OC)c(-c3c4c5cc(cc6c5n3CCC6)-c3csc(n3)C[C@H](NC(=O)[C@H]3[C@H](C)[C@@H]3C)C(=O)N3CCC[C@H](N3)C(=O)OCC(C)(C)C4)c2)CC1 (atropisomer, axis not shown; (M)) | KRAS G12C-BRAF complex (Homo sapiens (Human), UniProt P01116+P62937, G12C) | 7.73 |
| CO[C@@H](C)c1ncc(N2CCN(C)CC2)cc1-c1c2c3cc(cc4c3n1CCCO4)-c1csc(n1)C[C@H](NC(=O)[C@H]1[C@H](C)[C@@H]1C)C(=O)N1CCC[C@H](N1)C(=O)OCC(C)(C)C2 (atropisomer, axis not shown; (M)) | KRAS G12C-BRAF complex (Homo sapiens (Human), UniProt P01116+P62937, G12C) | 7.48 |
| CO[C@@H](C)c1ncc(N2CCN(C)CC2)cc1-c1c2c3cc(cc4c3n1CCO4)-c1csc(n1)C[C@H](NC(=O)[C@H]1C[C@@H]1c1cncnc1)C(=O)N1CCC[C@H](N1)C(=O)OCC(C)(C)C2 (atropisomer, axis not shown; (M)) | KRAS G12C-BRAF complex (Homo sapiens (Human), UniProt P01116+P62937, G12C) | 7.83 |
| CO[C@@H](C)c1ncc(N2CCN(C)CC2)cc1-c1c2c3cc(cc4c3n1CCC4)-c1csc(n1)C[C@H](NC(=O)[C@H]1CC[C@](C)(O)CC1)C(=O)N1CCC[C@H](N1)C(=O)OCC(C)(C)C2 (atropisomer, axis not shown; (M)) | KRAS G12C-BRAF complex (Homo sapiens (Human), UniProt P01116+P62937, G12C) | 7.54 |
| CO[C@@H](C)c1ncc(N2CCN(CCCO)CC2)cc1-c1c2c3cc(cc4c3n1CCC4)-c1csc(n1)C[C@H](NC(=O)[C@H]1[C@H](C)[C@@H]1C)C(=O)N1CCC[C@H](N1)C(=O)OCC(C)(C)C2 (atropisomer, axis not shown; (M)) | KRAS G12C-BRAF complex (Homo sapiens (Human), UniProt P01116+P62937, G12C) | 8.33 |
| CO[C@@H](C)c1ncc(N2CCN(C)CC2)cc1-c1c2c3cc(cc4c3n1CC(F)(F)C4)-c1csc(n1)C[C@H](NC(=O)[C@H]1C[C@@H]1c1cccnc1)C(=O)N1CCC[C@H](N1)C(=O)OCC(C)(C)C2 (atropisomer, axis not shown; (M)) | KRAS G12C-BRAF complex (Homo sapiens (Human), UniProt P01116+P62937, G12C) | 7.80 |
| CO[C@@H](C)c1ncc(N2CCOCC2)cc1-c1c2c3cc(cc4c3n1CCO4)-c1csc(n1)C[C@H](NC(=O)[C@H]1C[C@@H]1C)C(=O)N1CCC[C@H](N1)C(=O)OCC(C)(C)C2 (atropisomer, axis not shown; (M)) | KRAS G12C-BRAF complex (Homo sapiens (Human), UniProt P01116+P62937, G12C) | 7.63 |
| CO[C@@H](C)c1ncc(N2CCOCC2)cc1-c1c2c3cc(cc4c3n1[C@@H](C)CO4)-c1csc(n1)C[C@H](NC(=O)[C@H]1C[C@@H]1C)C(=O)N1CCC[C@H](N1)C(=O)OCC(C)(C)C2 (atropisomer, axis not shown; (M)) | KRAS G12C-BRAF complex (Homo sapiens (Human), UniProt P01116+P62937, G12C) | 7.18 |
| CO[C@@H](C)c1ncc(N2CCN3CCCC[C@@H]3C2)cc1-c1c2c3cc(cc4c3n1CCC4)-c1csc(n1)C[C@H](NC(=O)[C@H]1C[C@@H]1c1cncnc1)C(=O)N1CCC[C@H](N1)C(=O)OCC(C)(C)C2 (atropisomer, axis not shown; (M)) | KRAS G12C-BRAF complex (Homo sapiens (Human), UniProt P01116+P62937, G12C) | 8.22 |
| CO[C@@H](C)c1ncc(N2CCN(C)CC2)cc1-c1c2c3cc(cc4c3n1CCC4)-c1csc(n1)C[C@H](NC(=O)[C@@H]1C[C@H]1C1CC1)C(=O)N1CCC[C@H](N1)C(=O)OCC(C)(C)C2 (atropisomer, axis not shown; (M)) | KRAS G12C-BRAF complex (Homo sapiens (Human), UniProt P01116+P62937, G12C) | 7.99 |
| CO[C@@H](C)c1ncc(N2CCN(C)CC2)cc1-c1c2c3cc(cc4c3n1CCO4)-c1csc(n1)C[C@H](NC(=O)[C@H]1[C@@H]3COC[C@@H]31)C(=O)N1CCC[C@H](N1)C(=O)OCC(C)(C)C2 (atropisomer, axis not shown; (M)) | KRAS G12C-BRAF complex (Homo sapiens (Human), UniProt P01116+P62937, G12C) | 7.84 |
